Measured viability at 28.5 h, 10 µM, listed per entry for reference.
ASSAY DETAILS: in vitro
CONDITION SET: human, hela cells, % viability
Numbers only; they are read as %.

Below are worked cases with known answers.
COMPOUND	DISPLAY UNIT	NUMERIC RESULT
CC(=O)c1ccccc1NC(=O)c1cc2ccc(F)cc2nc1C	%	89.2
O=c1[nH]c2ccc(NS(=O)(=O)c3ccc4c(c3)OCCCO4)cc2[nH]1	%	87.7
CC(=O)CCc1cc(CCC(N)=O)on1	%	90.3
COc1ccc2c(ccn2S(=O)(=O)c2ccc(N3CCNCC3)c(C(F)(F)F)c2)c1 [CBK034033C]	%	89.3
O=C(NCCc1c[nH]c2ccc(Cl)cc12)c1ccc(Br)cc1Cl	%	89.1
Cc1noc(C)c1CC(=O)N1CCC(c2ccccc2)C1 (centres unmarked)	%	102

# input compound: `O=C(CSC1=NCCS1)Nc1ccnc2ccccc12` ; wanted: its viability at 28.5 h, 10 µM
101

Can you share its viability at 28.5 h, 10 µM? I mean this compound: CC(C)Oc1ccc(C(=O)C2=C(O)C(=O)N(CCN(C)C)C2c2ccccc2F)cc1 (centres unmarked)
102

###

ASSAY DETAILS: in vitro
Parameters: Viability of infected HeLa host cells, resazurin conversion, bulk resorufin fluorescence relative to DMSO
CONDITION SET: human, hela cells; bulk resorufin, mean of 3
ATTRIBUTE MEASURED: viability at 28.5 h, 0.037 µM (%)
Output spec: scalar in %, unitless text.

# input compound: COCCNc1nc2c(c(N3CCCCCC3)n1)CCNCC2 [c18e] ; wanted: its viability at 28.5 h, 0.037 µM
110

I am curious: what viability at 28.5 h, 0.037 µM value has been reported for Fc1cc(Br)c(CNCc2ncc[nH]2)c(N2CCCCC2)c1F [c31e] ?
92

What value of viability at 28.5 h, 0.037 µM has been recorded for this entry: COc1ccc(CC(=O)N2CCCC(c3nc(C)c4c(n3)N(CC3CC3)CCC4)C2)cc1 (stereo not shown) [c52e]
88.5

Please report the recorded viability at 28.5 h, 0.037 µM for CC1=C(C)C(=NNC(N)=S)C(C)=C(C)C1=NNC(N)=S [c19e] .
101

Which measured viability at 28.5 h, 0.037 µM value corresponds to CCOc1ccc2nc(NC(=N)N)nc(C)c2c1 [c37e] ?
86.7

// lookup viability at 28.5 h, 0.037 µM for Cc1noc(-c2ccc3c(c2O)OCCO3)c1-c1ccc(Cl)cc1 [c20e]
94.3

viability at 28.5 h, 0.037 µM for COc1ccc2cc3c(nc2c1)OC(=O)N(CC1CC1)C3 [c32e] ?
89.7

###

ASSAY DETAILS: in vitro
CONDITION SET: human, hela cells, % viability
Entries and their measured viability at 28.5 h, 10 µM follow.
Express your answer as a number followed by its unit.

# annotated cases, reported viability at 28.5 h, 10 µM shown
COMPOUND	RESULT
COc1ccc(S(=O)(=O)Nc2nnc(C(C)C)s2)cc1	91.3%
COCCN(C)c1ccc(C(=O)N2CCC(N3CCOCC3)CC2)cn1	111%
Cc1nc(N)nc(N[C@@H]2CCOC[C@H]2OCCN(C)C)c1Cl	88.7%
Cc1ccc(S(=O)(=O)NC(C)C(=O)Nc2ccc(C)c(Cl)c2)cc1 (centres unmarked)	98%
Cn1cc(-c2nc(C3COCCN3Cc3c(F)cccc3Cl)no2)cn1 (centres unmarked)	79.4%

I am curious: what viability at 28.5 h, 10 µM value has been reported for Cc1ccc(C)c(OCCNCCN(C)C)c1Cl [CBK267816C] ?
88.5%

Consider the compound shown here: `COC(=O)/C=C/c1cccc(-c2cnc(N)c(-c3ccc(O)cc3)n2)c1` What is its recorded viability at 28.5 h, 10 µM?
83.7%

Param item = `Cn1ncc2c(NCC(=O)N3CCNCC3)nc(C(C)(C)C)nc21` ; retrieve measured viability at 28.5 h, 10 µM.
120%

###

ASSAY DETAILS: in vitro
CONDITION SET: human, hela cells, % viability
ATTRIBUTE MEASURED: viability at 28.5 h, 10 µM (%)
Give the value in % but do not write % after it.

// below: answered compounds
COMPOUND	viability at 28.5 h, 10 µM, %
CN1CCc2nc(SCC(=O)NC(C)(C)C)c(C#N)cc2C1	87.4
CCCc1cc(=O)oc2cc(OCC(=O)OC(C)C)c(Cl)cc12	96.9
Cc1c(NC(=O)CSc2nnc(-c3ccc4ccccc4n3)s2)c(=O)n(-c2ccccc2)n1C	92.7
Cc1ccc(-c2nc3ncccc3o2)cc1NC(=S)NC(=O)c1ccc(-c2cccc([N+](=O)[O-])c2)o1	102
COc1ccc(CN2C(=O)CC(C(=O)O)S/C2=N\c2ccc(Cl)cc2)cc1 (centres unmarked)	106

For the compound shown here, `COc1cc(-c2nc(C(C)=O)c(C)n2O)cc(OC)c1OC` , give the reported viability at 28.5 h, 10 µM.
95.6

Which value of viability at 28.5 h, 10 µM has been reported for `O=[N+]([O-])c1cc(S(=O)(=O)N2CCCCCC2)ccc1NCc1ccccc1` in the records?
88.3

Return reported viability at 28.5 h, 10 µM; argument: Cc1ccc(S(=O)(=O)N(CC(O)CN2C(=O)NC(C)(C)C2=O)c2ccccc2[N+](=O)[O-])cc1 (centres unmarked)
95.3

May I ask what viability at 28.5 h, 10 µM has been recorded for `O/N=C/Nc1nccc(-c2cc(Cl)sc2Cl)n1` ?
87.5

Which viability at 28.5 h, 10 µM value is on record for `COC(=O)c1cc(Cl)c(NC(=S)NC(=O)C(C)(C)C)cc1OC` ?
94.1

Recorded viability at 28.5 h, 10 µM for `CN1CCC(N2CC[C@@H]3[C@H]2C(=O)NC[C@H](CCC(=O)NCc2ccc(F)cc2)N3C)CC1` , please?
90.6

###

ASSAY DETAILS: in vitro
CONDITION SET: human, hela cells, % viability
ATTRIBUTE MEASURED: viability at 28.5 h, 10 µM (%)
# number only, unit % dropped from output

Record excerpt, results attached:
MOLECULE	viability at 28.5 h, 10 µM (%)
Cc1ccc(C(=O)N/C(=C\c2cccc([N+](=O)[O-])c2)C(=O)NC2CCCCC2)cc1	89.2
COc1cccc(C(O)CN2CCC3(CC2)CC(O)c2cc(C)ccc2O3)c1 (centres unmarked)	88.4
O=C(CC1C(=O)NC(=O)N1Cc1ccccc1)NCc1ccccc1 (centres unmarked)	87.8
Cc1noc(NS(=O)(=O)c2ccc(NC(=O)COc3ccccc3Br)cc2)c1C	89.4
O=C(Cn1nc(-c2cc3c(s2)CCC3)oc1=O)N1CCCC1	90.3
O=C(NCCNC1CCC(c2ccccc2)CC1)c1ccc(F)cc1 (centres unmarked)	88.2
Cc1nccn1CCC1CCN(C(=O)c2cnn(C)c2)CC1	89.3
c1cncc(COc2nccnc2OC2CCN(CCOc3cccnc3)CC2)c1	92.1

Entry `CC(=O)N1CC[C@H]2NC(=O)CNC(=O)C3(CCCC[C@H]2C1)CCN(C(=O)/C=C/c1ccccc1)CC3` has what viability at 28.5 h, 10 µM?
105

I am curious: what viability at 28.5 h, 10 µM value has been reported for Cn1ccc(C(=O)N2CCCC3(C/C=C/Cc4ccccc4OCC(=O)NC3)C2)cc1=O (centres unmarked) ?
107

Quick one: viability at 28.5 h, 10 µM of `C=CCn1c(Cc2csc(NC(=O)c3ccc(OC)cc3O)n2)n[nH]c1=S` ?
104

Need viability at 28.5 h, 10 µM, item `CC(=O)Nc1cccc(NC(=O)c2cc(-c3ccncc3)nc3ccc(Cl)cc23)c1`
92.6

What viability at 28.5 h, 10 µM value was documented for this molecule, `COc1ccc(NC(=O)[C@@H]2C=CCN2C(=O)C2CC2)cc1` ?
98.2

So what's the measured viability at 28.5 h, 10 µM for this one? `COc1cc(CNC(=O)N2CCN(CCc3ccccc3)CC2)cc(OC)c1OC`
91.8

Reported viability at 28.5 h, 10 µM for `COCCNc1cc(-c2ccc(Cl)cc2)ncn1` : what is it?
96.3

Returns the measured viability at 28.5 h, 10 µM for the input molecule. Input: `NC(=O)c1cccc(-c2cnc(N)c(NC3CCOCC3)n2)c1`
98.8

Please look up its viability at 28.5 h, 10 µM: `COc1ccc(-c2nn(-c3ccccc3)cc2C(=O)Nc2ccc(C(=O)O)cc2)cc1OC`
95

###

ASSAY DETAILS: in vitro
CONDITION SET: human, hela cells, % viability
Define the label as condition met when viability at 28.5 h, 10 µM is strictly less than 90% and as condition not met in all remaining cases.

COMPOUND	ASSIGNED CATEGORY
COC(=O)Cn1c(=N)n(CCN2CCOCC2)c2ccccc21 [CBK262447B]	condition not met
COc1ccc(-c2nc(NC(=O)Cc3ccccc3OC(F)(F)F)cnc2-c2cccc(C)c2)cc1 [CBK037551]	condition not met
CCOc1ccc(S(=O)(=O)N2CCN(S(=O)(=O)c3cccc([N+](=O)[O-])c3)CC2)cc1 [CBK266341]	condition not met
O=C(O)c1cccc(NC(=S)NC(=O)C(c2ccccc2)c2ccccc2)c1 [CBK265053]	condition not met
CNC1CCN(S(=O)(=O)c2sc3ccc(C(C)C)cc3c2C)C1 (stereo not drawn) [CBK170067]	condition not met

Find out if reported viability at 28.5 h, 10 µM for COc1cccc(NC(=O)CSc2nnc(-c3ccccc3O)n2-c2ccccc2)c1 [CBK268343] is less than 90%
condition not met

Quick check: viability at 28.5 h, 10 µM of CCCc1nn(Cc2ccccn2)c(=O)c2cc3ccsc3n12 [CBK284229] under 90%?
condition met

Determine whether this compound shows viability at 28.5 h, 10 µM lower than 90% (ties excluded): CC(C)(N)CNC(=O)c1cnc2cc(Cl)ccc2c1O [CBK107360]
condition not met

Take the compound NS(=O)(=O)c1ccc(NC(S)=Nc2ccc(S(=O)(=O)N3CCCC3)cc2)cc1 [CBK266918] and say whether its viability at 28.5 h, 10 µM is less than 90%.
condition met

Just for reference, paper PMC12040169 is where these values come from.
